Values from patent US4550107A

What IC50 was measured for each of the following?
Molecular target: muscarinic receptors (cerebral cortex)
Test: Receptor binding tests: inhibition of specific 3H-N-methylscopolamine binding, cerebral cortex
Details: cerebral cortex homogenate 1:3000; 0.3 nM 3H-NMS; 30° C., 45 min, pH 7.4
Value expressed in nM; do not type the unit.

Which IC50 value belongs to CN(C)CC1CCCCN1CC(=O)N1c2ccccc2C(=O)Nc2cccnc21 (centres unmarked) [D] ? 1500

Which IC50 value belongs to CCN(CC)C[C@@H]1CCCN1CC(=O)N1c2ccccc2NC(=O)c2ccccc21 [I] ? 800

Which IC50 value belongs to CCCCN(C)CC1CCCCN1CC(=O)N1c2ccccc2NC(=O)c2ccccc21 (centres unmarked) [Q] ? 100

Which IC50 value belongs to CCN(CC)CC1CCCN(CC(=O)N2c3ccccc3NC(=O)c3ccccc32)C1 (centres unmarked) [M] ? 100

Which IC50 value belongs to CN(CC1CCCCN1CC(=O)N1c2ccccc2NC(=O)c2ccccc21)C1CCCCC1 (centres unmarked) [N] ? 50
